- Tested on: DU-145 prostate
- ASSAY NOTES: NCI-60 one-dose screen, 48 h (100 = growth as untreated, 0 = no growth, -100 = all killed)
- ASSAY SETUP: 10 µM unless noted
Compounds without any hit were thinned out: in the full panel of roughly 83,000, 20% have a hit.
Classification field: true (1) = growth at or over 60%; false (0) = growth under 60%.

// known answers, use as guide
{"columns": ["COMPOUND", "ASSIGNED CATEGORY"],
 "data": [
  ["COc1ccc(C(=O)c2c(N)c(C#N)cn2-c2ccc([N+](=O)[O-])cc2)cc1", "true (1)"],
  ["COc1ccc2c(c1)c(-c1cc(N)n3nc(-c4c[nH]c5ccccc45)cc3n1)cn2C", "false (0)"],
  ["COc1ccc(C2=Nc3c(N)nc(N)nc3NC(c3ccc(Oc4nc(Nc5ccc(F)cc5)nc(N(C)C)n4)c(OC)c3)C2)cc1 (centres undefined)", "true (1)"]
]}

Input line: Does the compound CC1=C(C(=O)Nc2ccccc2)C(c2ccc3ccccc3c2)n2c(nc3ccccc32)N1 (centres undefined) have recorded growth that is 60% or more?
Output line: false (0)

Input line: Does the compound NC(=O)c1ccc(-c2ccc3ncnc(N4CCc5cc(F)c(Cl)cc54)c3c2)cn1 have recorded growth that is 60% or more?
Output line: false (0)

Hey, just so you know, these numbers are from PubChem BioAssay (NCI).
